Test system: biotinyl-Ile-oxazolone
procedureDetails: self-aminoacylation, catalytic enhancement (BIO) (fold over background); higher = more active; k-Seq, kA / k0A0; sequences stand for … in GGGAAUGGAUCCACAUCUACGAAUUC…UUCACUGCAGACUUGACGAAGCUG
Fewer inactive variants are shown than the library holds.
Each record here notes measured self-aminoacylation.
When you answer, write just the number.

# recordSequence, targetEntity, self-aminoacylation
data = [
    ("GAGUUUACUAAUAGUCGCAAG [Fam3.1 aminoacylation ribozyme variant]", "biotinyl-Ile-oxazolone", 1.84),
    ("AUUACCCUGGUCAGGGAGUGA [Fam2.1 aminoacylation ribozyme variant]", "biotinyl-Ile-oxazolone", 2.57),
]

(Q) Reported self-aminoacylation, sequence CUACUCCAAACAAUCGGUCUC [Fam1A.1 aminoacylation ribozyme variant] : ____
(A) 0.71

(Q) Reported self-aminoacylation, sequence CCACACUUCAAUCAAUCCGUC [Fam1B.1 aminoacylation ribozyme variant] : ____
(A) 0.655

(Q) Reported self-aminoacylation, sequence AUACACCUACGUCAUCGGGUG [Fam2.2 aminoacylation ribozyme variant] : ____
(A) 3.12

(Q) Reported self-aminoacylation, sequence AUUACCCAGGUCAUCGGGUGA [Fam2.1 aminoacylation ribozyme variant] : ____
(A) 5.86

(Q) Reported self-aminoacylation, sequence AUUAACCUGGGUCAUCGGGUG [Fam2.2 aminoacylation ribozyme variant] : ____
(A) 6.99

(Q) Reported self-aminoacylation, sequence AUUUACCUAUGUCAUCGGGUG [Fam2.2 aminoacylation ribozyme variant] : ____
(A) 3.04

(Q) Reported self-aminoacylation, sequence AUUCACCUAGGUCAUCGCGUG [Fam2.2 aminoacylation ribozyme variant] : ____
(A) 7.1

(Q) Reported self-aminoacylation, sequence AAGCUUGCCAAUAGUCGCAAG [Fam3.1 aminoacylation ribozyme variant] : ____
(A) 2.31

---

Each record here notes measured self-aminoacylation.
Test system: biotinyl-Trp-oxazolone
procedureDetails: self-aminoacylation, catalytic enhancement (BWO) (fold over background); higher = more active; k-Seq, kA / k0A0; sequences stand for … in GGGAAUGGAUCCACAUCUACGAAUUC…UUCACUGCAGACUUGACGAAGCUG
Fewer inactive variants are shown than the library holds.
When you answer, write just the number.

# recordSequence, self-aminoacylation
measured = [
    ("AUUACCCUUGACAUCGAGUGA [Fam2.1 aminoacylation ribozyme variant]", 13.5),
    ("AUUCACAUAGAUCAUCGGGUG [Fam2.2 aminoacylation ribozyme variant]", 3.84),
    ("AUUAUCCUGGUCAUCGCGUGA [Fam2.1 aminoacylation ribozyme variant]", 19.3),
    ("AUUACCCUGGUUAGCGAGUGA [Fam2.1 aminoacylation ribozyme variant]", 5.27),
    ("CCACACGUCGAGCAAUCGGUC [Fam1B.1 aminoacylation ribozyme variant]", 1.22),
]

In the following, a different sequence is considered.
(Q) Hello, I am looking for reported self-aminoacylation with biotinyl-Trp-oxazolone for CCGCACUUCAAGCAAUCAGUC [Fam1B.1 aminoacylation ribozyme variant] . Could you help?
(A) 7.12

---

Tested on: biotinyl-Val-oxazolone
procedureDetails: self-aminoacylation, catalytic enhancement (BVO) (fold over background); higher = more active; k-Seq, kA / k0A0; sequences stand for … in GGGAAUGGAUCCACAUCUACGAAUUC…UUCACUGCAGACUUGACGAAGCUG
This sample holds only a part of the variants without activity.
observationType: self-aminoacylation
When you answer, write just the number.

In the examples that follow, each entry is paired with its recorded self-aminoacylation.
# recordSequence, targetEntity, self-aminoacylation
rows = [
    ("CCACACUUCAAGCGAUCGCUC [Fam1B.1 aminoacylation ribozyme variant]", "biotinyl-Val-oxazolone", 2.03),
    ("AAGUUUGCUAAUAUCCGCAAG [Fam3.1 aminoacylation ribozyme variant]", "biotinyl-Val-oxazolone", 0.886),
    ("AGACACCUAGGUCAUCGGGUG [Fam2.2 aminoacylation ribozyme variant]", "biotinyl-Val-oxazolone", 2.32),
    ("UUACACUUCAAGCAAUCGGUC [Fam1B.1 aminoacylation ribozyme variant]", "biotinyl-Val-oxazolone", 1.14),
    ("CCACACUUCAAGCAAUCGCCC [Fam1B.1 aminoacylation ribozyme variant]", "biotinyl-Val-oxazolone", 2.32),
]

In the following, a different sequence is considered.
(Q) Reported self-aminoacylation, sequence AUUAACCUAGUCAUCGAGUGA [Fam2.1 aminoacylation ribozyme variant] : ____
(A) 2.96
